target: X-box-binding protein 1 (Homo sapiens) (UniProt P17861); assay: XBP1 reporter suppression in cells – counter-screen, dose response (AID 504313); conditions: XBP1 reporter cell assay, percent of control;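 note: CHO cells carrying an XBP1 reporter stimulated with tunicamycin; potency is for inhibition of the tunicamycin-induced reporter signal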
Activity calls are given as the source filed them. The rule behind the calls is not given here.
Could you please pick one outcome from this set? yes (1) for active, no (0) for inactive

• Cc1cc(C(=O)CCl)c(C)n1-c1cccc(S(=O)(=O)N2CCOCC2)c1 = no (0)

Exam item: Recorded test outcome, item NC(=O)c1ccc(C(F)(F)F)n(Cc2ccc(Cl)cc2)c1=O
Marked response: no (0)

Exam item: Recorded test outcome, item O=C1NC[C@@H](Cc2cccc3ccccc23)N(CCc2cc(C(F)(F)F)cc(C(F)(F)F)c2)C1=O
Marked response: no (0)

Exam item: Recorded test outcome, item Cc1ccc(N=Cc2cc3c(cc2O)OC(N)=C(C#N)C3c2ccccc2)cc1 (stereo unspecified)
Marked response: no (0)

Exam item: Recorded test outcome, item Oc1ccc(/C=N/Nc2nc(N3CCCCCC3)nc(N3CCCCCC3)n2)c(O)c1
Marked response: no (0)

* * *

biological target: X-box-binding protein 1 (Homo sapiens) (UniProt P17861); test: XBP1 reporter suppression in cells – counter-screen, dose response (AID 504313); conditions: XBP1 reporter cell assay, percent of control
Activity calls are given as the source filed them. No rule for the calls is given here.
metric-name: IC50

# example entries with known answers
* Cc1cccc(N2CCN(C(=O)CS(=O)(=O)Cc3nc(-c4ccccc4F)oc3C)CC2C)c1 (stereo not given) | > 10 µM (inactive)
* COC(=O)c1sc(-c2ccc(C(C)(C)C)cc2)cc1NC(=O)c1ccccc1C(=O)O | > 10 µM (inactive)
* N#CC1=C(N)N2C(=C(C#N)C1c1cccc(Br)c1)Nc1ccccc12 (stereo not given) | inactive
* COc1ccccc1-c1cc(C(F)(F)F)nc(S(=O)(=O)CCCC(=O)Nc2cc(C)on2)n1 | inactive

Exam item: Please report the measured IC50 for C=CCn1c(SCC(=O)c2[nH]c(C)c(C(=O)OC)c2C)nc2scc(-c3ccc(OC)c(OC)c3)c2c1=O tested on X-box-binding protein 1 (Homo sapiens) (UniProt P17861).
Marked response: inactive

* * *

biological target: X-box-binding protein 1 (Homo sapiens) (UniProt P17861); assay: XBP1 reporter suppression in cells – counter-screen, dose response (AID 504313); conditions: XBP1 reporter cell assay, percent of control
The source made the active and inactive calls. How the calls were made is not given here.
Could you please pick one outcome from this set? active, inactive

• COc1cc(/C=C2\CC/C(=C\c3cc(OC)c(O)c(OC)c3)C2=O)cc(OC)c1O = inactive
• NC(=O)CC(NC(=O)Cc1cccc2ccccc12)c1ccc(NCc2ccccc2)c([N+](=O)[O-])c1 (configuration not stated) = inactive

Exam item: Recorded test outcome, item CCCCCCCCCCCCCCCC[n+]1cccc(C(=O)N(CC)CC)c1
Marked response: inactive

Exam item: Recorded test outcome, item CCc1ccc(OCC(=O)NC(NC(=S)Nc2ccc(Cl)cc2)C(Cl)(Cl)Cl)cc1 (configuration not stated)
Marked response: inactive

Exam item: Recorded test outcome, item CC(C)(C)c1ccc(O)c(N=Cc2cc(Br)ccc2O)c1
Marked response: inactive

* * *

target: X-box-binding protein 1 (Homo sapiens) (UniProt P17861); test: XBP1 reporter suppression in cells – counter-screen, dose response (AID 504313); conditions: XBP1 reporter cell assay, percent of control
Activity calls are given as the source filed them. The rule behind the calls is not given here.
Could you please pick one outcome from this set? 1 for active, -1 for inactive

Illustrative cases are given below, each with its answer.
* O=C(CN1CCN(c2ncc(C(F)(F)F)cc2Cl)CC1)NCCNc1ncc(C(F)(F)F)cc1Cl | -1
* CC(C)(C)c1ccc(CN2N=Nc3ccccc3S2(=O)=O)cc1 | -1
* C=C1C(=O)O[C@H]2C[C@@H](C)[C@@H]3C=CC(=O)[C@@]3(C)C[C@H]12 | -1
* CCC(CC)c1nnc(NC(=O)c2c(C)nn(Cc3ccccc3Cl)c2C)s1 | -1
* CCCCCCn1c(CN2CCN(Cc3ccccc3)CC2)nc2c1c(=O)n(C)c(=O)n2C | -1

Exam item: Recorded test outcome, item Cc1ccc(N=C2SC(C(=O)Nc3ccc(OC(F)(F)F)cc3)C(N)=C2C(=O)Nc2c(C)cc(C)cc2C)cc1 (stereo not given)
Marked response: -1

Exam item: Recorded test outcome, item Cc1cccc(/C=C/C(=O)c2cc(Br)ccc(=O)c2O)c1
Marked response: -1

Exam item: Recorded test outcome, item COc1cc([C@@H]2c3cc4c(cc3[C@@H](O)[C@@H](CO)[C@@H]2CO)OCO4)cc(OC)c1O[Si](C)(C)C(C)(C)C
Marked response: -1

* * *

molecular target: X-box-binding protein 1 (Homo sapiens) (UniProt P17861); assay: XBP1 reporter suppression in cells – counter-screen, dose response (AID 504313); settings: XBP1 reporter cell assay, percent of control
Calls of active or inactive are those of the source. No rule for the calls is given here.
Could you please pick one outcome from this set? yes (active), no (inactive)

• CCOC(=O)c1c(C)[nH]c2c1-c1ccccc1C(=O)C2=O = yes
• Cc1cc(C(=O)N/N=C/c2ccc(-c3cccc(Cl)c3Cl)o2)n[nH]1 = no
• COc1ccc(OC)c2sc(NC(=O)c3ccc(Cl)s3)nc12 = no
• CCOc1cc(CNc2ccc(O)cc2)ccc1OCc1ccc(Cl)cc1Cl = no
• Cc1ccc(NP(=O)(Oc2ccccc2F)Oc2ccccc2F)cc1 = no

Exam item: Recorded test outcome, item CCCCc1c(C)nn(-c2nnc3c4ccccc4n(CC)c3n2)c1C
Marked response: no

Exam item: Recorded test outcome, item Cc1ccc(OCC(=O)N2CCN(c3nnc(-c4ccc(C)cc4)c4ccccc34)CC2)cc1
Marked response: no

Exam item: Recorded test outcome, item CC(C)(C)c1ccc(-c2n[nH]c(=S)n2C2CCCC2)cc1
Marked response: no

Exam item: Recorded test outcome, item Nc1c(C(=O)Nc2nc3ccccc3s2)sc2nc(-c3cccs3)ccc12
Marked response: no

Exam item: Recorded test outcome, item Cc1cccc(OCC(=O)N/N=C\C=C\c2ccc3c(c2)OCO3)c1C
Marked response: no

Exam item: Recorded test outcome, item Cn1cnc([N+](=O)[O-])c1S(=O)(=O)c1ccc(Cl)cc1
Marked response: no

* * *

molecular target: X-box-binding protein 1 (Homo sapiens) (UniProt P17861); experiment: XBP1 reporter suppression in cells – counter-screen, dose response (AID 504313); details: XBP1 reporter cell assay, percent of control;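 note: CHO cells carrying an XBP1 reporter stimulated with tunicamycin; potency is for inhibition of the tunicamycin-induced reporter signal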
Calls of active or inactive are those of the source. How the calls were made is not given here.
Could you please pick one outcome from this set? Y for active, N for inactive

Exam item: Recorded test outcome, item CC(C)(C)OC(=O)CNC(=O)c1[nH]cnc1C(=O)Nc1ccc(Cl)cc1
Marked response: N

Exam item: Recorded test outcome, item O=S(=O)(Nc1cccc2c1CCCC2)c1cccc(C(F)(F)F)c1
Marked response: N

* * *

target: X-box-binding protein 1 (Homo sapiens); assay: XBP1 reporter suppression in cells – counter-screen, dose response (AID 504313); details: XBP1 reporter cell assay, percent of control;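 note: CHO cells carrying an XBP1 reporter stimulated with tunicamycin; potency is for inhibition of the tunicamycin-induced reporter signal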
The source made the active and inactive calls. The rule behind the calls is not given here.
Could you please pick one outcome from this set? active, inactive

Illustrative cases are given below, each with its answer.
- CCCCCCn1c(=O)c(C(=O)Nc2cnccn2)c(O)c2ccccc21: active
- COc1cc(-c2nc3ccc4ccccc4c3c3c2CCC3)cc(OC)c1O: inactive
- CC(C)(C)c1cc(CN2CCCC(O)C2)c(O)c(C(C)(C)C)c1 (stereo unspecified): inactive
- N#C/C(=C\c1ccc([N+](=O)[O-])o1)c1nc2ccccc2[nH]1: active
- Nc1c(S(=O)(=O)c2ccccc2)c2nc3ccccc3nc2n1/N=C/c1cccc(O)c1: inactive

Exam item: Recorded test outcome, item CC(C)(C)C(=O)NC(NC(=S)Nc1sc2c(c1C#N)CCCC2)C(Cl)(Cl)Cl (stereo unspecified)
Marked response: inactive

Exam item: Recorded test outcome, item O=C1CC(c2ccccc2)CC(O)=C1C=Nc1cccc(Cl)c1 (stereo unspecified)
Marked response: inactive

Exam item: Recorded test outcome, item Nc1nnnn1/N=C/C(Br)=C/c1ccccc1
Marked response: inactive

Exam item: Recorded test outcome, item COCCCn1c(N)c(C(=O)NCCC(C)C)c2nc3ccccc3nc21
Marked response: inactive

Exam item: Recorded test outcome, item Cc1ccc(-n2ncc(Br)c(Br)c2=O)cc1
Marked response: inactive

Exam item: Recorded test outcome, item COc1ccccc1NCC(O)COc1ccc(C(C)(C)C)cc1 (stereo unspecified)
Marked response: inactive

* * *

biological target: X-box-binding protein 1 (Homo sapiens) (UniProt P17861); test: XBP1 reporter suppression in cells – counter-screen, dose response (AID 504313); conditions: XBP1 reporter cell assay, percent of control;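 note: CHO cells carrying an XBP1 reporter stimulated with tunicamycin; potency is for inhibition of the tunicamycin-induced reporter signal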
Active and inactive are the calls of the source. No rule for the calls is given here.
Could you please pick one outcome from this set? 1 = active, 0 = inactive

Illustrative cases are given below, each with its answer.
• CCOC(=O)C1=C(C)NC(C)=C(C(=O)OCC)C1/C=C/c1ccccc1 = 0
• CC1CCC(n2c(=S)[nH]c3ccccc3c2=O)CC1 (configuration not stated) = 0
• O=C(c1nnsc1S(=O)(=O)c1ccc(Cl)cc1)N1CCOCC1 = 0
• Cn1c(=O)c([N+](=O)[O-])c(Cl)c2ccccc21 = 0
• CCSCCc1nnc(NC(=O)Nc2cccc(C(F)(F)F)c2)s1 = 1
• OC(COCC(F)(F)C(F)(F)C(F)(F)C(F)F)Cn1c2ccccc2c2ccccc21 (configuration not stated) = 0
• CCc1c(C)sc(NC(=O)CSc2nc3c(c(C(F)(F)F)n2)CCc2ccccc2-3)c1C#N = 0
• O=C(Cc1csc(Nc2nc(=S)[nH]c3ccccc23)n1)NCCCN1CCN(c2ccccc2F)CC1 = 0

Exam item: Recorded test outcome, item O=C1C=CC(=O)N1N(c1ccccc1)c1ccccc1
Marked response: 0

Exam item: Recorded test outcome, item O=c1[nH]c(=O)n(Cc2ccco2)c2c1C(C(F)(F)F)(C(F)(F)F)N=C(c1ccc(F)cc1)N2
Marked response: 0

Exam item: Recorded test outcome, item CC(=O)C1=C(S(=O)(=O)c2ccc(C)cc2)CS(=O)(=O)C1
Marked response: 0

Exam item: Recorded test outcome, item N#Cc1nccnc1S(=O)(=O)c1cccs1
Marked response: 0
